This collection of values is drawn from ChEMBL document CHEMBL1201862.

- Tested on: Hs-578T
- assayProcedure: NCI tumour cell line growth inhibition, 48 h
Active and inactive are the calls of the source. No stated cut-off is given here; in the data, active = GI50 up to about 1.1 µM and inactive = higher.
quantityMeasured: GI50

Recorded GI50, per entry:
CC1(C)OC2C(COC(c3ccccc3)(c3ccccc3)c3ccccc3)OC(c3c[nH]c4c(N)ncnc34)C2O1 (stereo unspecified) :: 5.73 µM (inactive)
Nc1nc(NCc2ccccc2)cc(NCc2ccccc2)n1 :: 2.86 µM (inactive)
Clc1cccc(Cl)c1C(Nc1nncs1)Nc1nncs1 :: 71.3 µM (inactive)
CC(C)[C@@H]1CC[C@@H](C)C[C@H]1OC(=O)/C=C1\C(C(=O)O[C@@H]2C[C@H](C)CC[C@H]2C(C)C)[C@H]2C=C[C@@H]1O2 (stereo partly specified) :: 72.3 µM (inactive)

Provide GI50 values for the following items, in order.
1. COC(=O)C1(NC(=O)C(CC(=O)OCc2ccccc2)NC(=O)OCc2ccccc2)CCCCCC1 (stereo unspecified)
2. CCOC(=O)c1c(C)nc2c3ccccc3c(C#N)c(C)n12
3. CCn1c(-c2ccc(OC(C)=O)cc2)c(C)c2cc(OC(C)=O)ccc21
4. CC(C)=CCNc1nc(Cl)nc2[nH]cnc12
5. O=[N+]([O-])C(C(Cl)=C(Cl)Cl)=C(N(Cc1ccccc1)Cc1ccccc1)N(Cc1ccccc1)Cc1ccccc1
6. O=[N+]([O-])CC(SCc1ccccc1)c1ccc2c(c1)OCO2 (stereo unspecified)
7. COc1ccc2c(c1)c[n+](C)c1c3cc(OC)c(OC)cc3ccc21

Output line:
15.6 µM (inactive)
32.9 µM (inactive)
13.9 µM (inactive)
62.8 µM (inactive)
> 100 µM (inactive)
6.31 µM (inactive)
2.23 µM (inactive)

Provide GI50 values for the following items, in order.
1. C[C@]12CCC(=O)C=C1C[C@@H](O)[C@@H]1[C@@H]2CC[C@@]2(C)[C@H]1CC[C@]2(C)O
2. CCOC(=O)N1CCC2(CC1)C[C@](C)(C(C)=O)C(C)O2 (stereo partly specified)
3. CC1=CC(=O)c2cccc(O)c2C1=O
4. Cc1c(C#N)c2ccccc2c2nc3ccccc3n12

Output line:
> 100 µM (inactive)
> 100 µM (inactive)
3.07 µM (inactive)
63 µM (inactive)
